Recorded GI50, one value per entry.
molecular target: Ba/F3-EGFR-insSVD cells (Homo sapiens, UniProt P00533, DUP768-770, cells depend on it); experiment: Ba/F3 cell survival assay (Cell Titer-Glo), EGFR-insSVD; type: cell-based; conditions: without IL-3, with 10 ng/mL EGF, 48 h; read-out: BA/F3 (insSVD) IC50
Sequence (P00533 with tags, fused parts or gaps DUP768-770): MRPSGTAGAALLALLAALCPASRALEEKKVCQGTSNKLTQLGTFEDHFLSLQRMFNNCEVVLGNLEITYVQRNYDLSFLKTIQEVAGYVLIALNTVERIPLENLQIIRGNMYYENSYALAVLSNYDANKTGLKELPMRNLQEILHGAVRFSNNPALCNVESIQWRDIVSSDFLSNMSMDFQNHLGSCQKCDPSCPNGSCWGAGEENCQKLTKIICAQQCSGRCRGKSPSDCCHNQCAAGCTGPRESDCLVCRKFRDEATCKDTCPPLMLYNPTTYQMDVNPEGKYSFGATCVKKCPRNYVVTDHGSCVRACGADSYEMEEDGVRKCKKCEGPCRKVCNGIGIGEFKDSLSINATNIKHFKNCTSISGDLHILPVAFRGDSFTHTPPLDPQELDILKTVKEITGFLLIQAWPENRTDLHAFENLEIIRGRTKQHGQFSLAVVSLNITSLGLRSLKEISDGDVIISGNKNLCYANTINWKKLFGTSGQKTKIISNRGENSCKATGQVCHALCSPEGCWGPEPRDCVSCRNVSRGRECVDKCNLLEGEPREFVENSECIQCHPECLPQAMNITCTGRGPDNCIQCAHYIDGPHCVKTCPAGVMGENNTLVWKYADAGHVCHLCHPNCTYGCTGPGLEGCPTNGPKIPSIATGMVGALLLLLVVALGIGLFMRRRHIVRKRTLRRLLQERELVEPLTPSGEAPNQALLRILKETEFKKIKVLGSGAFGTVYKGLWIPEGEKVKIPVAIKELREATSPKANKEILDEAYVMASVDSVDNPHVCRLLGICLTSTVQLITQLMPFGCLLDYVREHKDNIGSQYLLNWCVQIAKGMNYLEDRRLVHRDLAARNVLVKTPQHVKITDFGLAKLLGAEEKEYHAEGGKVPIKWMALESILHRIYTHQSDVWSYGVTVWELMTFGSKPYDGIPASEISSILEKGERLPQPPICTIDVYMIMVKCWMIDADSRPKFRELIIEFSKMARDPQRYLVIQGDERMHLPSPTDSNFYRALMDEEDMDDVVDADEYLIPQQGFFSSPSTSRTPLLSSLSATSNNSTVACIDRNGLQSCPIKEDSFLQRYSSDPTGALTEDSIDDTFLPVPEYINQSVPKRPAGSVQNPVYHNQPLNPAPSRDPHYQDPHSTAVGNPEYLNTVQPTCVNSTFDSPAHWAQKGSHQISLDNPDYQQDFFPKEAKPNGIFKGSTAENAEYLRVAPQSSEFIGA
recordedMetric: GI50 (nM)

compound | scaleUnit | observedMeasurement
Cc1c(F)cccc1Nc1c(-c2ccncc2OCC2COCCO2)[nH]c2c1C(=O)NCC2 (single isomer, unassigned) [Example 49] | nM | 53.6
Cc1c(F)cccc1Nc1c(-c2ccncc2OCC2COCCO2)[nH]c2c1C(=O)NCC2 (stereo not shown) [Example 47] | nM | 41.6
COc1c(Cl)cccc1Nc1c(-c2ccncc2OC[C@@H]2COCCN2C)[nH]c2c1C(=O)NCC2 | nM | 3.49
O=C1NCCc2[nH]c(-c3ccncc3OCC3COCCO3)c(Nc3cccc(Cl)c3Cl)c21 (stereo not shown) [Example 7] | nM | 18
CCc1c(Cl)cccc1Nc1c(-c2ccncc2OC[C@@H]2CN(C)CCO2)[nH]c2c1C(=O)NCC2 | nM | 11.9
Cc1c(Cl)cccc1Nc1c(-c2ccncc2OC[C@H]2COCCN2C)[nH]c2c1C(=O)NCC2 | nM | 60.5
COc1c(Cl)cccc1Nc1c(-c2ccncc2OCCC2COCCO2)[nH]c2c1C(=O)NCC2 (stereo not shown) [Example 24] | nM | 34.6
COc1c(Cl)cccc1Nc1c(-c2ccncc2OC(C)C2CN(C)CCO2)[nH]c2c1C(=O)NCC2 (stereo not shown) [Example 71] | nM | 132
COc1c(F)cccc1Nc1c(-c2ccncc2OC[C@@H]2CN(CC(F)F)CCO2)[nH]c2c1C(=O)NCC2 | nM | 41.9
COc1c(F)cccc1Nc1c(-c2ccncc2OCCC2COCCO2)[nH]c2c1C(=O)NCC2 (single isomer, unassigned) [Example 36] | nM | 68.1
Cc1c(F)cccc1Nc1c(-c2ccncc2OCC2COC(C)(C)CO2)[nH]c2c1C(=O)NCC2 (stereo not shown) [Example 38] | nM | 29.3
CCc1c(F)cccc1Nc1c(-c2ccncc2OCC2COCCO2)[nH]c2c1C(=O)NCC2 (stereo not shown) [Example 65] | nM | 13.4
COc1c(F)cccc1Nc1c(-c2ccncc2OCC2CN(C)CCO2)[nH]c2c1C(=O)NCC2 (stereo not shown) [Example 12] | nM | 22.8
Cc1c(F)cccc1Nc1c(-c2ccncc2OCC2CN(C)CCO2)[nH]c2c1C(=O)NCC2 (stereo not shown) [Example 62] | nM | 26.7
COc1c(F)cccc1Nc1c(-c2ccncc2OCC2COCCO2)[nH]c2c1C(=O)NCC2 (single isomer, unassigned) [Example 6] | nM | 50.3
COc1c(Cl)cccc1Nc1c(-c2ccncc2OC(C)C2CN(C)CCO2)[nH]c2c1C(=O)NCC2 (single isomer, unassigned) [Example 73] | nM | 78
COc1c(F)cccc1Nc1c(-c2ccncc2OCC2COC(C)(C)CO2)[nH]c2c1C(=O)NCC2 (single isomer, unassigned) [Example 34] | nM | 12
CCc1c(Cl)cccc1Nc1c(-c2ccncc2OC[C@H]2COCCO2)[nH]c2c1C(=O)NCC2 (single isomer, unassigned) | nM | 80.9
CCc1c(F)cccc1Nc1c(-c2ccncc2OCC2COC(C)(C)CO2)[nH]c2c1C(=O)NCC2 (single isomer, unassigned) [Example 70] | nM | 67.9
COc1c(F)cccc1Nc1c(-c2ccncc2OCC2COCCO2)[nH]c2c1C(=O)NCC2 (single isomer, unassigned) [Example 5] | nM | 9.73
Cc1c(Cl)cccc1Nc1c(-c2ccncc2OC[C@H]2COCCO2)[nH]c2c1C(=O)NCC2 (single isomer, unassigned) [Example 50] | nM | 8.82
COc1c(Cl)cccc1Nc1c(-c2ccncc2OC[C@@H]2COCCO2)[nH]c2c1C(=O)NCC2 (single isomer, unassigned) | nM | 7.12
O=C1NCCc2[nH]c(-c3ccncc3OCC3COCCO3)c(Nc3cccc(Cl)c3Cl)c21 (single isomer, unassigned) [Example 9] | nM | 32.7
CCc1c(F)cccc1Nc1c(-c2ccncc2OCC2COCCO2)[nH]c2c1C(=O)NCC2 (single isomer, unassigned) [Example 66] | nM | 7.52
COc1c(Cl)cccc1Nc1c(-c2ccncc2OC[C@H]2COCCN2C)[nH]c2c1C(=O)NCC2 | nM | 18.7
COc1c(F)cccc1Nc1c(-c2ccncc2OC[C@H]2COCCN2C)[nH]c2c1C(=O)NCC2 | nM | 35.7
Cc1c(F)cccc1Nc1c(-c2ccncc2OCC2COC(C)(C)CO2)[nH]c2c1C(=O)NCC2 (single isomer, unassigned) [Example 39] | nM | 44
CCc1c(Cl)cccc1Nc1c(-c2ccncc2OC[C@H]2CN(C)CCO2)[nH]c2c1C(=O)NCC2 | nM | 124
